Sourced from PubChem BioAssay

PROTOCOL: plasmodial surface anion channel blockers, osmotic lysis – cell-based, P. falciparum Indochina, OD700, 18 h, primary screen (AID 1157)
EXPERIMENTAL SETUP: P. falciparum Indochina infected erythrocytes, osmotic lysis OD700, 18 h; higher = more signal, called active from +8 up or from −8 down
OBSERVATION TYPE: z-score
// print number alone

Worked examples, 10 molecules total:
CCCCCCc1nc(-c2ccc(-c3ccc(Cl)c(Cl)c3)o2)c(C)c2c1[Si](C(C)C)(C(C)C)OC2
-1.57
CN(C)C(=O)[C@]1(Cc2ccccc2)N=C(c2ccc(OCCCO)cc2)O[C@@H]1c1ccccc1N=[N+]=[N-]
4.27
[N-]=[N+]=Nc1ccccc1C[C@@]1(C(=O)N2CCCCC2)N=C(c2ccc(OCCCO)cc2)O[C@@H]1c1ccccc1
2.31
O=C1OCC=C[C@H]2OC34C=CCN(Cn5nnc6ccccc65)C(=O)[C@H]3N(CCCCCO)C(=O)[C@@H]4[C@@H]12 (stereo not given in full)
0.383
COCC(=C=CC[C@H](O)c1cccc(OCCO)c1)C[C@H](O)c1cc(Cl)cc(Cl)c1O
1.21
O=C1[C@H]2C=C(Br)[C@H](C[C@@H]2OCCCCCCO)[C@@]12CO2
0.501
O=C1C2C=CC(C(O)c3cc(C(F)(F)F)cc(C(F)(F)F)c3)N(Nc3ccccc3)C2C(=O)N1c1ccccc1 (stereo not given)
2.64
C=C(CCCC)C(=O)CC[C@H](OC(=O)c1cccnc1)c1ccc(OCCO)cc1
1.39
COCC(=C=CC[C@H](O)c1cccc(OCCO)c1)CCO
0.0864
CC(=O)n1cc(C(O)C2C=CC3C(=O)NC(=O)C3N2Nc2ccccn2)c2ccccc21 (stereo not given)
0.679

IN: Please report the measured z-score for "COc1ccc([Si](C)(C)[C@@H]2[C@@H](CCO)O[C@]3(C(=O)N(Cc4cccc(N5CCOC5=O)c4)c4ccccc43)[C@H]2C)cc1"
OUT: 3.29

IN: Please report the measured z-score for OCC1C=C(/C=C/c2ccccc2)CN1Cc1ccccc1Br (stereo not given)
OUT: 0.499

IN: Please report the measured z-score for "Cc1ccc(S[C@]2(C(=O)NCC(C)C)CC(=O)N(Cc3cc(C(F)(F)F)cc(C(F)(F)F)c3)[C@@H]2c2ccc(CO)cc2)cc1"
OUT: 0.13

IN: Please report the measured z-score for C=CCC(OC(C)=O)[C@@H]1[C@@H](N(Cc2ccc(-c3cccc(C(F)(F)F)c3)o2)C(=O)c2cccc3ccccc23)c2cc(OCCCO)ccc2N1C(=O)Cc1ccc2ccccc2c1 (stereo not given in full)
OUT: -0.449

IN: Please report the measured z-score for "COCCCNC(=O)[C@@H]1c2ccccc2C(=O)N(Cc2ccccc2OC)[C@H]1c1ccc(CO)cc1"
OUT: -0.631

IN: Please report the measured z-score for "COCC(=C=CC[C@H](O)c1ccccc1OCCO)CCO"
OUT: 0.0371

IN: Please report the measured z-score for "CN(C)CCCCCCNC(=O)[C@@H]1C[C@@H]2C(=O)N3CCC[C@H]3C(=O)N2[C@@H]1c1ccc(O)cc1"
OUT: -1.93

IN: Please report the measured z-score for CC(c1ccccc1)C(O)C1C=CC2C(=O)N(c3ccccc3)C(=O)C2N1Nc1ccccc1 (stereo not given)
OUT: -1.35

IN: Please report the measured z-score for "COCCCNC(=O)[C@@]1(Sc2ccc(C)cc2)CC(=O)N(Cc2ccccc2Cl)[C@@H]1c1ccc(CO)cc1"
OUT: -1.83

IN: Please report the measured z-score for "COC(=O)c1c2oc(c1C(=O)OC)C(=O)NC1(CCCCC1)c1cn(nn1)C[C@H](Cc1ccccc1)NC(=O)N[C@H](CO)CC2"
OUT: 0.285

IN: Please report the measured z-score for CCCCN1CC=CC23O[C@@H]4/C=C\CCCOC(=O)C4[C@H]2C(=O)N(CCCCCO)[C@@H]3C1=O (stereo not given in full)
OUT: 0.0625

IN: Please report the measured z-score for O=C1NC(=O)C2C1C=CC(C(O)C=Cc1ccc([N+](=O)[O-])cc1)N2Nc1ccc(Cl)cc1Cl (stereo not given)
OUT: 1.66

IN: Please report the measured z-score for "NC(=O)NCC#Cc1ccc2c(c1)[C@]1(C(=O)N2)[C@H](C(=O)O)[C@H]2C(=O)O[C@H](c3ccccc3)[C@H](c3ccccc3)N2[C@@H]1c1ccc(O)cc1"
OUT: 0.27

IN: Please report the measured z-score for "COC(=O)[C@@]1(Cc2ccc(OC)cc2)[C@H]2c3cc(C(=O)N4CCCC4)n(Cc4nc5ccccc5[nH]4)c3C[C@H]2CN1C(=O)c1ccccc1"
OUT: 1.03

IN: Please report the measured z-score for "COCCOC(=O)N1C(=O)[C@@]2(c3cc(C#CC4(O)CCCCCC4)ccc31)[C@H](C(=O)Nc1nc3ccccc3s1)[C@H]1C(=O)O[C@H](c3ccccc3)[C@H](c3ccccc3)N1[C@@H]2c1ccc(OCCO)cc1"
OUT: 2.27

IN: Please report the measured z-score for "O=C(CS)NCCCCCNC(=O)[C@H]1C[C@H]2C(=O)NCC(=O)N2[C@H]1c1ccc(O)cc1"
OUT: -2.32

IN: Please report the measured z-score for "C#CCN1[C@@H](Cc2ccc(O)cc2)C(=O)O[C@H](Cc2ccccc2)[C@@H]1/C=C/C1CC1"
OUT: 0.0357

IN: Please report the measured z-score for "COC(=O)[C@@]1(CCC(=O)OC(C)(C)C)N=C(c2ccc(OCCCO)cc2)O[C@H]1c1ccccc1"
OUT: 1.89

IN: Please report the measured z-score for "CCOC(=O)[C@H]1C/C=C/C[C@H](C(=O)OCC)C(=O)O[C@H]2[C@@H](OC)O[C@H](CO)[C@@H](OC(=O)c3ccc(Br)cc3)[C@@H]2OC1=O"
OUT: 0.877

IN: Please report the measured z-score for "COCCOC(=O)N1C(=O)[C@@]2(c3ccccc31)[C@H](C(=O)N1CCc3cc(OC)c(OC)cc3C1)[C@H]1C(=O)O[C@H](c3ccccc3)[C@H](c3ccccc3)N1[C@@H]2c1ccc(O)cc1"
OUT: -1.93

###

PROTOCOL: budding yeast growth changes without added modifier – OD600, strain BY4716, 24 h, basal condition, primary screen (AID 1173)
EXPERIMENTAL SETUP: S. cerevisiae BY4716 growth, OD600, 24 h; higher = more signal, called active from +8 up or from −8 down
OBSERVATION TYPE: z-score
// print number alone

Worked examples, 5 compounds total:
C=CCOC(=O)[C@H]1[C@@H]2C(=O)O[C@@H](c3ccccc3)[C@@H](c3ccccc3)N2[C@@H](c2ccc(OCCOC(=O)[C@H]3C[C@H]4C(=O)N[C@@H](CCCCN(C)C)C(=O)N4[C@H]3c3cccc(OCCO)c3)cc2)[C@]12C(=O)Nc1ccc(I)cc12
0.626
C#CCOc1ccc(C[C@@H](C(=O)OC)N(CC#C)[C@@H](/C=C/C2CC2)[C@H](O)Cc2ccccc2)cc1
1.03
CCCCN1CC=CC23O[C@@H]4C=CCOC(=O)[C@@H]4[C@H]2C(=O)N(CCCCCCO)[C@@H]3C1=O (some centres not stated)
0.0518
O=C(NCCN1CCOCC1)[C@@H]1c2ccccc2C(=O)N(Cc2cc(C(F)(F)F)cc(C(F)(F)F)c2)[C@H]1c1ccc(CO)cc1
0.164
COc1ccc([C@H]2OC[C@@H]3CCC(=O)N32)cc1
0.242

IN: Please report the measured z-score for "[N-]=[N+]=Nc1ccccc1C[C@@]1(C(=O)N2CCCCC2)N=C(c2ccc(OCCCO)cc2)O[C@@H]1c1ccccc1"
OUT: -2.84

IN: Please report the measured z-score for O=C1OCCC=C[C@H]2OC34C=CCN(CCN5CCOCC5)C(=O)[C@H]3N(CCCCCO)C(=O)[C@@H]4C12 (some centres not stated)
OUT: -0.987

###

Quick list: z-score per entry.
PROTOCOL: blood-stage malaria parasite viability loss – strain 3D7, DAPI fluorescence, 100 nL, primary screen (AID 1184);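 also: parasites grown inside human red blood cells in medium with human serum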
EXPERIMENTAL SETUP: P. falciparum 3D7 growth, 3 d, higher = more signal
// print number alone

Worked examples, 4 molecules total:
Cc1ccc(S(=O)(=O)N2C[C@@H](C(=O)O)[C@H](Sc3ccccc3)C[C@H]2c2ccccc2)cc1
-0.0652
COCCCNC(=O)[C@@]1(Cc2ccccc2)N=C(c2ccc(OCCCO)cc2)O[C@H]1c1ccccc1CN=[N+]=[N-]
-2.62
CC(C)N1CC=CC23O[C@@H]4C=CCOC(=O)[C@@H]4[C@H]2C(=O)N(CCCCCO)[C@@H]3C1=O (stereo partly drawn)
-0.758
N#Cc1ccc(C(O)C2C=CC3C(=O)N(c4ccccc4)C(=O)C3N2Nc2ccccc2F)cc1 (stereo not drawn)
-0.85

IN: Please report the measured z-score for "C=CCOC(=O)[C@H]1[C@@H]2C(=O)O[C@@H](c3ccccc3)[C@@H](c3ccccc3)N2[C@@H](c2ccc(OCCOC(=O)[C@@H]3C[C@@H]4C(=O)N5CCC[C@H]5C(=O)N4[C@@H]3c3cccc(OCCO)c3)cc2)[C@]12C(=O)Nc1ccc(I)cc12"
OUT: -1.66

IN: Please report the measured z-score for "C[N+](C)(C)CCCCCCNC(=O)[C@H]1C[C@H]2C(=O)N[C@@H](Cc3ccccc3)C(=O)N2[C@H]1c1cccc(OCCO)c1"
OUT: -0.463

IN: Please report the measured z-score for "COCC(=C=CC[C@H](O)c1cccc(OCCO)c1)CCO"
OUT: 0.547

IN: Please report the measured z-score for O=C1OCC=C[C@H]2OC34C=CCN(CCN5CCOCC5)C(=O)[C@H]3N(CCO)C(=O)[C@@H]4[C@@H]12 (stereo partly drawn)
OUT: 0.703
